Value source: ChEMBL document CHEMBL1141332

# Tested on: HL-60
# experimental_details: Cytotoxicity against human HL60 cells
# Assay type: functional
# recorded_conditions: Homo sapiens, HL-60
Consider the following compounds; for each one, report its GI50.
Give bare numbers, in µM.

Known results for compounds:
CC1OC(=O)[C@H]2[C@H]1[C@@H](O)C[C@H]1[C@]3(C)CC[C@H]4C(C)(C)CCC[C@]4(C)[C@H]3C[C@@H](O)[C@]21C (some centres undefined) : 11.7
CC(=O)O[C@H]1C[C@H]2[C@@](C)(CC[C@H]3C(C)(C)CCC[C@@]32CO)[C@@H]2CC=C(C(C)=O)[C@H](C=O)[C@@]12C : 0.17

Hi! Can you tell me GI50 for each of these compounds?
1. CC(=O)C1=CC[C@H]2[C@]3(C)CC[C@H]4C(C)(C)CCC[C@]4(C(=O)O)[C@H]3CC(=O)[C@]2(C)[C@H]1C=O
2. CC(=O)O[C@@H]1C[C@H]2[C@]3(C)CC[C@H]4C(C)(C)CCC[C@]4(C)[C@H]3C[C@H](O)[C@]2(C)[C@@H](C=O)[C@@H]1C(C)=O

1. 0.282
2. 1.32

* * *

# Tested on: COLO 205
# experimental_details: Cytotoxicity against human COLO205 cells
# Assay type: functional
# recorded_conditions: read-out: Log TGI (converted)
readout_kind: TGI (nM)
One number for each entry, in nM.

Illustrative cases are given below, each with its answer.
CC(=O)C1=CC[C@H]2[C@]3(C)CC[C@H]4C(C)(C)CCC[C@]4(C(=O)O)[C@H]3CC(=O)[C@]2(C)[C@H]1C=O : 2570
CC(=O)O[C@H]1C[C@H]2[C@@](C)(CC[C@H]3C(C)(C)CCC[C@@]32CO)[C@@H]2CC=C(C(C)=O)[C@H](C=O)[C@@]12C : 1320
CC(=O)O[C@@H]1C[C@H]2[C@]3(C)CC[C@H]4C(C)(C)CCC[C@]4(C)[C@H]3C[C@H](O)[C@]2(C)[C@@H](C=O)[C@@H]1C(C)=O : 1860

// switching to the query compound
Quick check: TGI of CC1OC(=O)[C@H]2[C@H]1[C@@H](O)C[C@H]1[C@]3(C)CC[C@H]4C(C)(C)CCC[C@]4(C)[C@H]3C[C@@H](O)[C@]21C (some centres undefined) ? 32400

* * *

# Tested on: MCF7
# experimental_details: Cytotoxicity against human MCF7 cells
# Assay type: functional
# recorded_conditions: read-out: Log TGI (converted)
readout_kind: TGI (µM)
Numbers only, in µM.

Sample answers from the record:
CC(=O)O[C@H]1C[C@H]2[C@@](C)(CC[C@H]3C(C)(C)CCC[C@@]32CO)[C@@H]2CC=C(C(C)=O)[C@H](C=O)[C@@]12C : 3.47
CC(=O)O[C@@H]1C[C@H]2[C@]3(C)CC[C@H]4C(C)(C)CCC[C@]4(C)[C@H]3C[C@H](O)[C@]2(C)[C@@H](C=O)[C@@H]1C(C)=O : 6.17

Field: next molecule
Consider the molecule shown here: "CC(=O)C1=CC[C@H]2[C@]3(C)CC[C@H]4C(C)(C)CCC[C@]4(C(=O)O)[C@H]3CC(=O)[C@]2(C)[C@H]1C=O" What is its recorded TGI? 9.33

* * *

# Tested on: OVCAR-8
# experimental_details: Cytotoxicity against human OVCAR8 cells
# Format: functional
# recorded_conditions: read-out: Log TGI (converted)
readout_kind: TGI
Reply with the number and its unit after it.

CC(=O)O[C@@H]1C[C@H]2[C@]3(C)CC[C@H]4C(C)(C)CCC[C@]4(C)[C@H]3C[C@H](O)[C@]2(C)[C@@H](C=O)[C@@H]1C(C)=O : 3.89 µM
CC(=O)O[C@H]1C[C@H]2[C@@](C)(CC[C@H]3C(C)(C)CCC[C@@]32CO)[C@@H]2CC=C(C(C)=O)[C@H](C=O)[C@@]12C : 0.692 µM
CC(=O)C1=CC[C@H]2[C@]3(C)CC[C@H]4C(C)(C)CCC[C@]4(C(=O)O)[C@H]3CC(=O)[C@]2(C)[C@H]1C=O : 3.63 µM

Continue with the next molecule.
Endpoint output: TGI of CC1OC(=O)[C@H]2[C@H]1[C@@H](O)C[C@H]1[C@]3(C)CC[C@H]4C(C)(C)CCC[C@]4(C)[C@H]3C[C@@H](O)[C@]21C (some centres undefined) . Value? 63.1 µM
